# Target or system: T1, MDM2 (UniProt Q00987 1-138, limits assumed)
# T1 construct: also called MDM2 (41 kD); HDM2
# T1 sequence (Q00987 1-138 limits assumed): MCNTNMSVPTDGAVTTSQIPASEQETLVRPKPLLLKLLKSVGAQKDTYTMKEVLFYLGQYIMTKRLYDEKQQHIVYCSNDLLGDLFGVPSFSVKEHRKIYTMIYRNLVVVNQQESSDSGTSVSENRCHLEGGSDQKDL
# Procedure summary: competitive FP vs FAM-labeled linear peptide, MDM2 41 kD; grade, scale in paragraph 603
Bridge positions count the residues as written; N and C are the ends. Square brackets hold non-standard residues; d marks the D form. dPhe(4-CF3) = N[C@H](Cc1ccc(C(F)(F)F)cc1)C(=O)O; R5 = C=CCCC[C@@](C)(N)C(=O)O
Assay readout: IC50

Data request, read-out IC50, for Ac-[dT][dA][dW][dY][dA][dN][dPhe(4-CF3)][dE][R5][dL][dL][dR][R5][dA]-NH2 (staple 9-13, also called Ac-tawyanf4CF3e$r5llr$r5a-NH2) [peptidomimetic macrocycle SP 755] ≤ 10 nM
